- ASSAY SYSTEM: recombinant human TrkA (Homo sapiens, UniProt P04629)
- Construct: 6HIS tagged cytoplasmic domain from Invitrogen, Catalog No. PV3144
- Sequence (P04629 440-796 limits assumed): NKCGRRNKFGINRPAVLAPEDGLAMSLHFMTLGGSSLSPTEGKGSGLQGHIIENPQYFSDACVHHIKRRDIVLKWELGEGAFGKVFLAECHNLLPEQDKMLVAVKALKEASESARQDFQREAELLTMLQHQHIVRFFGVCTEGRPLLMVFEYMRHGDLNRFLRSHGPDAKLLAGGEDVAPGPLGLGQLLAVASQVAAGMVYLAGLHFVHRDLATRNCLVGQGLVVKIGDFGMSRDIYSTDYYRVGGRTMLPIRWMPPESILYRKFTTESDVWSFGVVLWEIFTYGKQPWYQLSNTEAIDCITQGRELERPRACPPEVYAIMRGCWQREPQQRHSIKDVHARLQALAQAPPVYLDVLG
- ASSAY NAME: TrkA LanthaScreen Eu Kinase Binding Assay
- CONDITION PARAMETERS: averaged IC50; TR-FRET binding assay, 60 min at 22° C.; read-out: TrkA Enzyme IC50
# IC50 per entry

Observe how each entry below is paired with its result.
TEST SMILES	OUTCOME MEASURE	RESULT
CCOc1nn(-c2ccccc2)c(NC(=O)Nc2c(-c3ccc(OC)cc3)nc3c(C)cccn23)c1C	IC50	100 to 1000 nM
CCOc1nn(-c2ccccc2)c(NC(=O)Nc2c(-c3ccccc3)nn3ccccc23)c1C	IC50	100 to 1000 nM
Cc1cccn2c(NC(=O)Nc3c4c(nn3-c3ccccc3)CCC4)c(-c3ccccc3)nc12	IC50	< 100 nM

Inquiry: So what does the record say about IC50 for `CCOc1nn(-c2ccccc2)c(NC(=O)Nc2c(-c3ccccc3)nc3c(C)cccn23)c1C` ?
Reply text: < 100 nM

Inquiry: So what does the record say about IC50 for `CCOc1nn(-c2ccccc2)c(NC(=O)Nc2c(-c3ccccc3)nc3c(C(F)(F)F)cccn23)c1C` ?
Reply text: < 100 nM

Inquiry: So what does the record say about IC50 for `Cc1c(-c2cnn(C)c2)nn(-c2ccccc2)c1NC(=O)Nc1c(-c2ccccc2)nc2c(C(F)(F)F)cccn12` ?
Reply text: < 100 nM

Inquiry: So what does the record say about IC50 for `COCc1nn(-c2ccccc2)c(NC(=O)Nc2c(-c3ccccc3)nc3c(C(F)(F)F)cccn23)c1C` ?
Reply text: 100 to 1000 nM

----------
- ASSAY SYSTEM: recombinant human TrkA (Homo sapiens)
- Construct: 6HIS tagged cytoplasmic domain from Invitrogen, Catalog No. PV3144
- ASSAY NAME: TrkA LanthaScreen Eu Kinase Binding Assay
- CONDITION PARAMETERS: averaged IC50; TR-FRET binding assay, 60 min at 22° C.; read-out: TrkA Enzyme IC50
pIC50: −log10 of the molar value.
# pIC50 per entry

Observe how each entry below is paired with its result.
TEST SMILES	pIC50
CCOc1nn(-c2ccccc2)c(NC(=O)Nc2c(-c3ccccc3)nc3c(F)cccn23)c1C	6.00 to 7.00
CCOc1nn(-c2ccccc2)c(NC(=O)Nc2c(-c3ccc(F)cc3)nc3c(C(F)(F)F)cccn23)c1C	> 7.00
O=C(Nc1c2c(nn1-c1ccccc1)CCC2)Nc1c(-c2ccccc2)nc2c(C(F)(F)F)cccn12	> 7.00
O=C(Nc1c2c(nn1-c1ccccc1)CS(=O)(=O)C2)Nc1c(-c2ccccc2)nc2c(C(F)(F)F)cccn12	> 7.00
COC[C@H](O)COc1nn(-c2ccccc2)c(NC(=O)Nc2c(-c3ccccc3)nc3c(C(F)(F)F)cccn23)c1C	> 7.00

Inquiry: So what does the record say about pIC50 for `Cc1c(OC[C@H](C)O)nn(-c2ccccc2)c1NC(=O)Nc1c(-c2ccccc2)nc2c(C)cccn12` ?
Reply text: 6.00 to 7.00

Inquiry: So what does the record say about pIC50 for `Cc1c(OC[C@H](O)CO)nn(-c2ccccc2)c1NC(=O)Nc1c(-c2ccccc2)nc2c(C)cccn12` ?
Reply text: 6.00 to 7.00
